Experiment: self-splicing fitness, log relative to wild type (ln ratio); higher = more splicing; Tetrahymena group I intron in knt gene, E. coli kanamycin selection, DiMSum; sequences stand for … in CUCUCU…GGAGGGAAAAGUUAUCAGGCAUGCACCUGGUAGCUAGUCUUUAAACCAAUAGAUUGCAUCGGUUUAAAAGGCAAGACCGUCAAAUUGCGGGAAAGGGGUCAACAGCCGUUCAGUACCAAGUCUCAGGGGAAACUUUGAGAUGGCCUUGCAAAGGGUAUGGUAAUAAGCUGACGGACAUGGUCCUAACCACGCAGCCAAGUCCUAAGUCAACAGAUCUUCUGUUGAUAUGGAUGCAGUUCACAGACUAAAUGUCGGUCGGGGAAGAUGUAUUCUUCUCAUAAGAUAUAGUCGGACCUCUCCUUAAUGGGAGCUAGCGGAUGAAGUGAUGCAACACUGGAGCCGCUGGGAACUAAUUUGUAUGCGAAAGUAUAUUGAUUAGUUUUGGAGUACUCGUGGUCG;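 further: selection with 25 µg/mL kanamycin versus none on LB agar overnight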
Details: 37 °C
measurementName: self-splicing fitness (ln)
Give bare numbers.

In the examples that follow, each entry is paired with its recorded self-splicing fitness (ln).
UUAAAGCAAUAUUACGGGAC	-2.24
AGCUAGCAAUAUUACGGACU	0.516
CAGAAGCAAUAUUACGAACU	-1.72
AGAGAGCAAUAUUACGGGAC	-2.61

Need self-splicing fitness (ln), item UAUUAGCAAUAUUACGUACA
-0.493
